So I've got a bunch of compounds here, and I need their ΔTm values.
measured target: Lysosomal acid glucosylceramidase (Homo sapiens) (UniProt P04062)
Sequence (whole entry): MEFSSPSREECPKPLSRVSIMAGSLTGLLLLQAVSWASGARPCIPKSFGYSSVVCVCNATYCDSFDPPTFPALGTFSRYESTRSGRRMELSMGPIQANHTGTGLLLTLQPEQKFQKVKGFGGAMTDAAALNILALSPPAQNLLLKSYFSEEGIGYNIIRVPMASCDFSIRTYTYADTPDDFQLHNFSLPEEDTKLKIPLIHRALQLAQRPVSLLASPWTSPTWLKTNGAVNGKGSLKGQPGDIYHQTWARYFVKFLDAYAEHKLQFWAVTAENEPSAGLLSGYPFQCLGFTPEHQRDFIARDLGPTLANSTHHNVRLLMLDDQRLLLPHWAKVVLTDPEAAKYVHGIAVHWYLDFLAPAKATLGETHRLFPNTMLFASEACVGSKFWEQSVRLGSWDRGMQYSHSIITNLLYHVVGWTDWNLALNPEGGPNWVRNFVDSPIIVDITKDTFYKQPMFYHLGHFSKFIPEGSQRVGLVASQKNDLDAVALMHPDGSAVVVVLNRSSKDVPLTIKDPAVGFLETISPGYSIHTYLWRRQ
assay procedure: Binding affinity to recombinant Gcase assessed as change in melting temperature at 400 uM by fluorescence thermal shift technique
Please state the figure in °C; there is no need to write the unit.

*Q* Sample COc1ccccc1S(=O)(=O)N1CCN(c2nc(-c3cccs3)nc3ccccc23)CC1 — what was its ΔTm?
*A* 8.09

*Q* Sample OC[C@H]1CNC[C@@H](O)[C@@H]1O — what was its ΔTm?
*A* 9.56

*Q* Sample O=S(=O)(c1ccc2ccccc2c1)N1CCN(c2nc(-c3cccs3)nc3ccccc23)CC1 — what was its ΔTm?
*A* 19.9

*Q* Sample O=S(=O)(c1ccc2c(c1)OCCO2)N1CCN(c2nc(-c3cccs3)nc3ccccc23)CC1 — what was its ΔTm?
*A* 22.8

###

So I've got a bunch of compounds here, and I need their ΔTm values.
Please state the figure in °C; there is no need to write the unit.

*Q* Lab note: need ΔTm with Lysosomal acid glucosylceramidase (Homo sapiens) (UniProt P04062) for entry O=S(=O)(c1ccc2c(c1)OCCO2)N1CCN(c2nc(-c3cccs3)nc3ccccc23)CC1 , please look it up.
*A* 20.7

*Q* Lab note: need ΔTm with Lysosomal acid glucosylceramidase (Homo sapiens) (UniProt P04062) for entry OC[C@H]1CNC[C@@H](O)[C@@H]1O , please look it up.
*A* 8.25

*Q* Lab note: need ΔTm with Lysosomal acid glucosylceramidase (Homo sapiens) (UniProt P04062) for entry COc1ccccc1S(=O)(=O)N1CCN(c2nc(-c3cccs3)nc3ccccc23)CC1 , please look it up.
*A* 6.86

*Q* Lab note: need ΔTm with Lysosomal acid glucosylceramidase (Homo sapiens) (UniProt P04062) for entry O=S(=O)(c1ccc2ccccc2c1)N1CCN(c2nc(-c3cccs3)nc3ccccc23)CC1 , please look it up.
*A* 17.3

*Q* Lab note: need ΔTm with Lysosomal acid glucosylceramidase (Homo sapiens) (UniProt P04062) for entry Cc1ccc(S(=O)(=O)N2CCN(c3nc(-c4cccs4)nc4ccccc34)CC2)cc1 , please look it up.
*A* 11

###

assay procedure: Inhibition of alpha-glucosidase
The source made the active and inactive calls. How the calls were made is not given here.
metric: Activity

# count of solved cases: 6
{"chemical structure": "N#Cc1ccccc1S(=O)(=O)N1CCN(c2nc(-c3cccs3)nc3ccccc23)CC1", "Activity": "inactive"}
{"chemical structure": "O=S(=O)(c1cccc(C(F)(F)F)c1)N1CCN(c2nc(-c3cccs3)nc3ccccc23)CC1", "Activity": "inactive"}
{"chemical structure": "O=S(=O)(c1cc(Cl)cc(Cl)c1)N1CCN(c2nc(-c3cccs3)nc3ccccc23)CC1", "Activity": "inactive"}
{"chemical structure": "O=S(=O)(c1ccc(Br)cc1)N1CCN(c2nc(-c3cccs3)nc3ccccc23)CC1", "Activity": "inactive"}
{"chemical structure": "O=S(=O)(c1cnc2ccccc2c1)N1CCN(c2nc(-c3cccs3)nc3ccccc23)CC1", "Activity": "inactive"}
{"chemical structure": "Cc1ccc(S(=O)(=O)N2CCN(c3nc(-c4cccnc4)nc4ccccc34)CC2)cc1", "Activity": "inactive"}

*Q* Sample O=[N+]([O-])c1ccccc1S(=O)(=O)N1CCN(c2nc(-c3ccccc3)nc3ccccc23)CC1 — what was its Activity?
*A* inactive

###

assay procedure: Inhibition of alpha-glucosidase
Activity calls are given as the source filed them. No rule for the calls is given here.
metric: Activity

# count of solved cases: 4
{"chemical structure": "N#Cc1ccccc1S(=O)(=O)N1CCN(c2nc(-c3ccccc3)nc3ccccc23)CC1", "Activity": "inactive"}
{"chemical structure": "Cc1ccc(S(=O)(=O)N2CCN(c3nc(-c4ccoc4)nc4ccccc34)CC2)cc1", "Activity": "inactive"}
{"chemical structure": "O=S(=O)(Cc1ccccc1)N1CCN(c2nc(-c3cccs3)nc3ccccc23)CC1", "Activity": "inactive"}
{"chemical structure": "O=S(=O)(c1ccccc1C(F)(F)F)N1CCN(c2nc(-c3ccccc3)nc3ccccc23)CC1", "Activity": "inactive"}

As a next step, examine the molecule that follows.
*Q* Sample COc1ccccc1S(=O)(=O)N1CCN(c2nc(-c3cccs3)nc3ccccc23)CC1 — what was its Activity?
*A* inactive

###

measured target: Lysosomal acid glucosylceramidase (Homo sapiens) (UniProt P04062)
assay procedure: Binding affinity to recombinant Gcase assessed as change in melting temperature at 300 uM by fluorescence thermal shift technique
metric: ΔTm
I'd appreciate it if you wrote the number followed by its unit.

*Q* Sample O=S(=O)(c1ccc2c(c1)OCCO2)N1CCN(c2nc(-c3cccs3)nc3ccccc23)CC1 — what was its ΔTm?
*A* 22.8 °C

*Q* Sample O=S(=O)(c1ccc2ccccc2c1)N1CCN(c2nc(-c3cccs3)nc3ccccc23)CC1 — what was its ΔTm?
*A* 19.8 °C

*Q* Sample COc1ccccc1S(=O)(=O)N1CCN(c2nc(-c3cccs3)nc3ccccc23)CC1 — what was its ΔTm?
*A* 7.48 °C

*Q* Sample OC[C@H]1CNC[C@@H](O)[C@@H]1O — what was its ΔTm?
*A* 8.98 °C

###

measured target: Lysosomal acid glucosylceramidase (Homo sapiens) (UniProt P04062)
Please note: ΔTm exactly at 8 °C is Not met. Only values below 8 °C get Met.

*Q* Quick check: ΔTm of COc1ccccc1S(=O)(=O)N1CCN(c2nc(-c3cccs3)nc3ccccc23)CC1 under 8 °C?
*A* Met

*Q* Quick check: ΔTm of O=S(=O)(c1ccc2ccccc2c1)N1CCN(c2nc(-c3cccs3)nc3ccccc23)CC1 under 8 °C?
*A* Not met

*Q* Quick check: ΔTm of Cc1ccc(S(=O)(=O)N2CCN(c3nc(-c4cccs4)nc4ccccc34)CC2)cc1 under 8 °C?
*A* Not met

*Q* Quick check: ΔTm of O=S(=O)(c1ccc2c(c1)OCCO2)N1CCN(c2nc(-c3cccs3)nc3ccccc23)CC1 under 8 °C?
*A* Not met

###

assay procedure: Inhibition of alpha-glucosidase
Active and inactive are the calls of the source. The rule behind the calls is not given here.
metric: Activity

# count of solved cases: 4
{"chemical structure": "Cc1ccc(S(=O)(=O)N2CCC(c3nc(-c4cccs4)nc4ccccc34)CC2)cc1", "Activity": "inactive"}
{"chemical structure": "CC(C)(C)c1ccc(S(=O)(=O)N2CCN(c3nc(-c4ccccc4)nc4ccccc34)CC2)cc1", "Activity": "inactive"}
{"chemical structure": "O=S(=O)(c1ccc(C(F)(F)F)cc1)N1CCN(c2nc(-c3ccccc3)nc3ccccc23)CC1", "Activity": "inactive"}
{"chemical structure": "Cc1ccc(S(=O)(=O)N2CCN(c3nc(-c4cccs4)nc4ncccc34)CC2)cc1", "Activity": "inactive"}

As a next step, examine the molecule that follows.
*Q* Sample O=S(=O)(c1ccccc1)N1CCN(c2nc(-c3cccs3)nc3ccccc23)CC1 — what was its Activity?
*A* inactive

###

So I've got a bunch of molecules here, and I need their ΔTm values.
measured target: Lysosomal acid glucosylceramidase (Homo sapiens) (UniProt P04062)
Please state the figure in °C; there is no need to write the unit.

*Q* Lab note: need ΔTm with Lysosomal acid glucosylceramidase (Homo sapiens) (UniProt P04062) for entry O=S(=O)(c1ccc2c(c1)OCCO2)N1CCN(c2nc(-c3cccs3)nc3ccccc23)CC1 , please look it up.
*A* 13.3

*Q* Lab note: need ΔTm with Lysosomal acid glucosylceramidase (Homo sapiens) (UniProt P04062) for entry O=S(=O)(c1ccc2ccccc2c1)N1CCN(c2nc(-c3cccs3)nc3ccccc23)CC1 , please look it up.
*A* 10.8

*Q* Lab note: need ΔTm with Lysosomal acid glucosylceramidase (Homo sapiens) (UniProt P04062) for entry COc1ccccc1S(=O)(=O)N1CCN(c2nc(-c3cccs3)nc3ccccc23)CC1 , please look it up.
*A* -0.76

*Q* Lab note: need ΔTm with Lysosomal acid glucosylceramidase (Homo sapiens) (UniProt P04062) for entry Cc1ccc(S(=O)(=O)N2CCN(c3nc(-c4cccs4)nc4ccccc34)CC2)cc1 , please look it up.
*A* 5.18

*Q* Lab note: need ΔTm with Lysosomal acid glucosylceramidase (Homo sapiens) (UniProt P04062) for entry OC[C@H]1CNC[C@@H](O)[C@@H]1O , please look it up.
*A* 6.72
